- Read-out: Matrix Metallopeptidase 1 (MMP1), MMP1 (gene 4312)
- procedure_details: BSK_MyoF_MMP1: BioMAP Diversity Plus: MyoF Assay for Matrix Metallopeptidase 1 (MMP1) Biomarker Activity (AID 2284268)
- recorded_conditions: primary human lung fibroblasts
- Procedure: BSK_MyoF is a cell-based, multiplexed-readout assay that uses lung fibroblasts, […], with measurements taken at 24 hours after chemical dosing in a microplate: 96-well plate.BSK_MyoF_MMP1 is an assay component measured in the BSK_MyoF assay. […] The levels of cell surface (or secreted, indicated by the prefix "s") biomarker endpoints were measured by ELISA. […] Plates were read after 6 h.
Activity calls are given as the source filed them. How the source made its calls: active means hit-call score of the fitted dose curve at least 0.9, where 1 is the maximum; inactive means score below 0.9.
Outcomes: active, inactive

INSERT INTO measurements (molecule, group) VALUES
  ('CCCCC(CC)CO[N+](=O)[O-] (stereo unspecified)', 'active'),
  ('O=[N+]([O-])c1ccc2c3c(cccc13)CC2', 'active'),
  ('ClC1=C(Cl)[C@]2(Cl)[C@H]3[C@H]([C@H]4C=C[C@H]3C4)[C@@]1(Cl)C2(Cl)Cl', 'active'),
  ('COC[C@H](C)N(C(=O)CCl)c1c(C)csc1C', 'inactive'),
  ('CC(C)CCCCCCOC(=O)c1ccccc1C(=O)OCCCCCCC(C)C', 'inactive'),
  ('CCOP(=S)(OCC)SCCS(=O)(=O)CC', 'inactive');

----------
- Read-out: succinate dehydrogenase complex iron sulfur subunit B (SDHB), SDHB (gene 6390)
- procedure_details: LTEA_HepaRG_SDHB: Life Technologies and Expression Analysis (LTEA) Assay for succinate dehydrogenase complex iron sulfur subunit B (SDHB) using HepaRG (AID 2283528)
- recorded_conditions: mRNA level, 48 h; actives raise or lower the signal
- Procedure: LTEA_HepaRG is a cell based, multiplexed-readout assay that uses HepaRG, a human liver cell line, with measurements taken at 48 hours after chemical dosing on a 96-well plate.LTEA_HepaRG_SDHB is one of 102 assay component(s) measured in the LTEA HepaRG cell culture assay. It is a marker of Cell proliferation, survival, death.Data from the assay component LTEA_HepaRG_SDHB was analyzed into 1 endpoint. […]
Calls of active or inactive are those of the source. How the source made its calls: active means hit-call score of the fitted dose curve at least 0.9, where 1 is the maximum; inactive means score below 0.9.
Outcomes: true (1) = active, false (0) = inactive

INSERT INTO measurements (compound, group) VALUES
  ('CC12CC1(C)C(=O)N(c1cc(Cl)cc(Cl)c1)C2=O (stereo not given)', 'false (0)'),
  ('CCOP(=S)(OCC)Oc1nc(Cl)c(Cl)cc1Cl', 'false (0)'),
  ('C[C@@H]1C[C@@H]([C@H](O)CC2CC(=O)NC(=O)C2)C(=O)[C@@H](C)C1', 'true (1)'),
  ('CCCCCCCCc1ccc(O)cc1', 'false (0)'),
  ('O=C(Nc1ccc2[nH]ccc2c1)c1cc2cc(F)ccc2n1Cc1cccc(F)c1', 'false (0)'),
  ('CC(=O)[O][Hg][c]1ccccc1', 'true (1)'),
  ('Oc1cccc2cccnc12', 'false (0)'),
  ('CN(C)N=O', 'false (0)'),
  ('COc1cc(-c2ccc(N)c(OC)c2)ccc1N', 'false (0)'),
  ('CCN1CCC2(CC1)COc1cc3c(cc12)N(C(=O)c1ccc(-c2ccc(-c4nnc(C)o4)cc2C)cc1)CC3', 'true (1)');

----------
- Read-out: urokinase plasminogen activator (uPA), PLAU (gene 5328)
- procedure_details: BSK_KF3CT_uPA: BioMAP Diversity Plus: KF3CT Assay for urokinase plasminogen activator (uPA) Biomarker Activity (AID 2283075)
- recorded_conditions: primary human keratinocytes with fibroblasts; actives raise or lower the signal
Active and inactive are the calls of the source. The calls were made as follows: active = hit-call score of the fitted dose curve at least 0.9, where 1 is the maximum; inactive = score below 0.9.
Outcomes: T = active, F = inactive

INSERT INTO assay_data (molecule, group) VALUES
  ('O=[N+]([O-])c1ccc2c3c(cccc13)CC2', 'F'),
  ('COP(=S)(OC)Oc1cc(Cl)c(Cl)cc1Cl', 'F'),
  ('O=C(O)C(F)(F)C(F)(F)C(F)(F)C(F)(F)C(F)(F)C(F)(F)F', 'F'),
  ('O=C1C2(Cl)C3(Cl)C4(Cl)C(Cl)(Cl)C5(Cl)C3(Cl)C1(Cl)C5(Cl)C24Cl (stereo not drawn)', 'T'),
  ('C=CC(=O)OCCCCCC(C)C', 'F'),
  ('CCC(=O)C(CC(C)N(C)C)(c1ccccc1)c1ccccc1 (stereo not drawn)', 'F'),
  ('Cn1sc(Cl)cc1=O', 'F'),
  ('O=C(O)CCC(F)(C(F)(F)F)C(F)(F)F', 'F'),
  ('C[C@]12CCC(=O)C[C@@H]1CC[C@@H]1[C@@H]2CC[C@]2(C)[C@@H](O)CC[C@@H]12', 'F'),
  ('O=Cc1cccc(Oc2ccccc2)c1', 'F'),
  ('COP(=S)(OC)Oc1c(Cl)cc(C)cc1Cl', 'F'),
  ('COC(=O)Cc1ccccc1', 'F'),
  ('O=S(=O)(c1ccc(Cl)cc1)c1ccc(Cl)cc1', 'F'),
  ('CC(C)(OO)c1ccccc1', 'F'),
  ('CCCCC(CC)CO[N+](=O)[O-] (stereo not drawn)', 'T'),
  ('COC[C@H](C)N(C(=O)CCl)c1c(C)csc1C', 'F'),
  ('CC(=O)OC(c1ccccc1)C(Cl)(Cl)Cl (stereo not drawn)', 'F'),
  ('CCCCCCCCc1ccc(O)cc1', 'T'),
  ('CCN1CCC2(CC1)COc1cc3c(cc12)N(C(=O)c1ccc(-c2ccc(-c4nnc(C)o4)cc2C)cc1)CC3', 'T'),
  ('Oc1ccc(-c2ccccc2)cc1', 'F'),
  ('OCc1ccco1', 'F'),
  ('NC(=S)Nc1ccccc1', 'F'),
  ('CN(C)N=O', 'F'),
  ('CC(C)c1ccc(CO)cc1', 'F'),
  ('CC(=O)[O][Hg][c]1ccccc1', 'T'),
  ('C[C@@H]1C[C@@H]([C@H](O)CC2CC(=O)NC(=O)C2)C(=O)[C@@H](C)C1', 'T'),
  ('COc1cc(-c2ccc(N)c(OC)c2)ccc1N', 'F'),
  ('NC(=O)O', 'F');

----------
- Read-out: Vascular endothelial growth factor receptor 2 (Homo sapiens) (UniProt P35968)
- procedure_details: BSK_4H_VEGFRII: BioMAP Diversity Plus: 4H Assay for Vascular endothelial growth factor receptor 2 (VEGFR2) Biomarker Activity (AID 2283031)
- recorded_conditions: primary human endothelial cells (HUVEC); actives raise or lower the signal
Active and inactive are the calls of the source. Rule for the calls: active = hit-call score of the fitted dose curve at least 0.9, where 1 is the maximum; inactive = score below 0.9.
Outcomes: active, inactive

INSERT INTO assay_data (compound, group) VALUES
  ('O=C(O)C(F)(F)C(F)(F)C(F)(F)C(F)(F)C(F)(F)C(F)(F)C(F)(F)C(F)(F)C(F)(F)C(F)(F)F', 'inactive'),
  ('O=C1C2(Cl)C3(Cl)C4(Cl)C(Cl)(Cl)C5(Cl)C3(Cl)C1(Cl)C5(Cl)C24Cl (stereo not drawn)', 'active'),
  ('O=C(O)C(F)(F)C(F)(F)C(F)(F)C(F)(F)C(F)(F)C(F)(F)F', 'inactive');

----------
- Read-out: Tissue Factor, F3 (gene 2152)
- procedure_details: BSK_CASM3C_TissueFactor: BioMAP Diversity Plus: CASM3C Assay for Tissue Factor Biomarker Activity (AID 2283052);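 further: cell surface tissue factor protein level read by ELISA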
- recorded_conditions: primary human coronary artery smooth muscle cells; actives raise or lower the signal
Calls of active or inactive are those of the source. Rule for the calls: active = hit-call score of the fitted dose curve at least 0.9, where 1 is the maximum; inactive = score below 0.9.
Outcomes: Yes (active), No (inactive)

INSERT INTO assay_data (molecule_smiles, group) VALUES
  ('Oc1c(I)cc(I)cc1I', 'No'),
  ('O=C(OC1CCCCC1)c1ccccc1C(=O)OC1CCCCC1', 'Yes'),
  ('C[C@]12CCC(=O)C[C@@H]1CC[C@@H]1[C@@H]2CC[C@]2(C)[C@@H](O)CC[C@@H]12', 'No');

----------
- procedure_details: ATG_PXRE_CIS: Attagene CIS-FACTORIAL HepG2 Assay for human Pregnane X Receptor Element (PXRE) (AID 2282957)
- recorded_conditions: HepG2 Attagene CIS-FACTORIAL PXRE reporter, mRNA; actives raise or lower the signal
The source made the active and inactive calls. Rule for the calls: active = hit-call score of the fitted dose curve at least 0.9, where 1 is the maximum; inactive = score below 0.9.
endpoint_label: AC50

INSERT INTO assay_data (compound, endpoint_label, result) VALUES
  ('ClC(Cl)=C(Cl)C(Cl)=C(Cl)Cl', 'AC50', '130 µM (active)'),
  ('C[C@@H](Oc1ccc(Cl)cc1Cl)C(=O)O', 'AC50', 'inactive'),
  ('O=C(CCl)CCl', 'AC50', '49.3 µM (active)'),
  ('Cc1ccccc1C(=O)Nc1cccc(OC(C)C)c1', 'AC50', '2.89 µM (active)'),
  ('C=CCc1ccc(OC)cc1', 'AC50', '26.6 µM (active)'),
  ('O=C(Cl)c1ccc(Cl)cc1', 'AC50', 'inactive'),
  ('ClC1=C(Cl)[C@]2(Cl)[C@H]3[C@H]([C@H]4C=C[C@H]3C4)[C@@]1(Cl)C2(Cl)Cl', 'AC50', '1.6 µM (active)'),
  ('C=C(C)C#N', 'AC50', 'inactive'),
  ('CCCCCCCCSC(=O)Oc1cc(Cl)nnc1-c1ccccc1', 'AC50', '27.1 µM (active)'),
  ('Nc1cccc(Cl)c1', 'AC50', 'inactive'),
  ('Cc1cc(Cl)ccc1O[C@H](C)C(=O)O', 'AC50', 'inactive'),
  ('CC(C)CCCCCCOC(=O)c1ccccc1C(=O)OCCCCCCC(C)C', 'AC50', '1.39 µM (active)'),
  ('COc1cc(OC)nc(NC(=O)NS(=O)(=O)c2ncccc2C(=O)N(C)C)n1', 'AC50', 'inactive'),
  ('CN(CCCC(=O)c1cccnc1)N=O', 'AC50', '27.2 µM (active)'),
  ('C=C(C)C(=O)[O][Sn]([CH2]CCC)([CH2]CCC)[CH2]CCC', 'AC50', 'inactive'),
  ('O=S(=O)(c1ccc(Cl)cc1)c1ccc(Cl)cc1', 'AC50', '4.46 µM (active)'),
  ('COS(=O)(=O)c1ccc(C)cc1', 'AC50', 'inactive'),
  ('Fc1ccc(C2(Cn3cncn3)OC2c2ccccc2Cl)cc1 (stereo not given)', 'AC50', '3.04 µM (active)'),
  ('CC(C)(C)CC(C)(C)c1ccc(O)cc1', 'AC50', '3.34 µM (active) [middle of 4 runs]'),
  ('CCc1ccccc1C', 'AC50', 'inactive'),
  ('ClCc1ccccn1', 'AC50', 'inactive'),
  ('c1ccc(N=NNc2ccccc2)cc1', 'AC50', '25.8 µM (active)'),
  ('CCC(=O)c1ccccc1', 'AC50', 'inactive'),
  ('C(=NC1CCCCC1)=NC1CCCCC1', 'AC50', 'inactive'),
  ('COc1ccc(C=O)cc1', 'AC50', 'inactive'),
  ('COC(=O)Cc1ccccc1', 'AC50', 'inactive'),
  ('C=CC(=O)OCCCCCC(C)C', 'AC50', '69.5 µM (active)'),
  ('CC(Br)C(=O)O (stereo not given)', 'AC50', 'inactive'),
  ('N#CN=C(N)N', 'AC50', 'inactive'),
  ('Cc1ccccc1N', 'AC50', 'inactive'),
  ('CCNc1nc(NC(C)(C)C)nc(SC)n1', 'AC50', '1.67 µM (active)'),
  ('Clc1ccc(COC(Cn2ccnc2)c2ccc(Cl)cc2Cl)cc1 (stereo not given)', 'AC50', '0.697 µM (active)'),
  ('OCc1ccco1', 'AC50', '39.7 µM (active)'),
  ('C=CC#N', 'AC50', 'inactive'),
  ('COC(=O)c1sccc1S(=O)(=O)NC(=O)Nc1nc(C)nc(OC)n1', 'AC50', 'inactive'),
  ('CCCCOCCOC(C)=O', 'AC50', 'inactive'),
  ('CCCCC(CC)CO[N+](=O)[O-] (stereo not given)', 'AC50', 'inactive'),
  ('C[C@H]1CCCC(=O)CCC/C=C/c2cc(O)cc(O)c2C(=O)O1', 'AC50', '0.665 µM (active)'),
  ('CCOP(=O)(CN(CCO)CCO)OCC', 'AC50', 'inactive'),
  ('COC[C@H](C)N(C(=O)CCl)c1c(C)csc1C', 'AC50', '30.6 µM (active)'),
  ('CCOP(=S)(OCC)Oc1nc(Cl)c(Cl)cc1Cl', 'AC50', '5.24 µM (active)'),
  ('CCOP(OCC)OCC', 'AC50', 'inactive'),
  ('CC(=O)c1cc(C(C)(C)C)cc2c1CCC2(C)C', 'AC50', '5.72 µM (active)'),
  ('CC1(C)Cc2cccc(O)c2O1', 'AC50', '7.98 µM (active)'),
  ('CCN(CC)C(=O)Cl', 'AC50', 'inactive'),
  ('Nc1ncc([N+](=O)[O-])s1', 'AC50', 'inactive'),
  ('Oc1c(I)cc(I)cc1I', 'AC50', 'inactive'),
  ('COP(=S)(OC)Oc1ccc(S(=O)(=O)N(C)C)cc1', 'AC50', '26.8 µM (active)'),
  ('CNC', 'AC50', 'inactive'),
  ('O=C/C=C/c1ccccc1', 'AC50', '9.96 µM (active)'),
  ('CCC[CH2][Sn]([CH2]CCC)([CH2]CCC)[O]C(=O)c1ccccc1', 'AC50', 'inactive'),
  ('CCC(=O)C(CC(C)N(C)C)(c1ccccc1)c1ccccc1 (stereo not given)', 'AC50', '18.6 µM (active)'),
  ('COP(=S)(OC)Oc1ccc(Sc2ccc(OP(=S)(OC)OC)cc2)cc1', 'AC50', '2.83 µM (active)'),
  ('CC12CC1(C)C(=O)N(c1cc(Cl)cc(Cl)c1)C2=O (stereo not given)', 'AC50', '4.87 µM (active) [middle of 4 runs]'),
  ('CC(C)c1cccc(C(C)C)c1O', 'AC50', '3.76 µM (active)');

// provenance: PubChem BioAssay (EPA / NIEHS)
